Origin of values: PubChem BioAssay (NCATS)

Consider the following compounds; for each one, report its activity change, negative = inhibition.
- assay protocol: qHTS Assay for Lipid Storage Modulators (AID 1519); also: % is scaled to controls: 0 for no effect and ±100 for the full control effect
- assay context: Drosophila S3 cells, BODIPY lipid droplet/cell ratio, laser cytometry; at 57.5 µM (top of the series); cells loaded with oleic acid
Records with an inconclusive call do not appear.
One number for each entry, in %.

compound=S=C(NC1CCCCC1)N1CCC(c2cnc[nH]2)CC1 measurement_units=% result=0.457
compound=C#CCOC(=O)C1=CCCN(C)C1 measurement_units=% result=6
compound=C[C@]12N[C@H](Cc3ccccc31)c1ccccc12 measurement_units=% result=-1.18

Dear reader, for each entry below, please note its activity change, negative = inhibition.
1. CN1C2CCC1CC(OC(=O)c1cc(Cl)cc(Cl)c1)C2 (centres undefined)
2. CS(=N)(=O)CC[C@H](N)C(=O)O (some centres undefined)

1: -1.85; 2: -1.65

Kindly give each listed record's activity change, negative = inhibition.
1. Cn1cnc(CCN)c1
2. O=C(O)CCCOc1ccc(Cl)cc1Cl
3. CCCCc1ccc(C(=O)O)nc1
4. NCCc1c[nH]c2ccccc12
5. NC(CCP(=O)(O)O)C(=O)O (centres undefined)
6. NCCc1c[nH]c2ccc(O)cc12
7. COC(=O)[C@@H](N)CCCN=C(N)N[N+](=O)[O-]
8. O=C(O)Cc1cnc[nH]1

1.27
4.8
1.57
5.62
2.25
0.919
-4.08
-0.977

// returns reported activity change, negative = inhibition for input C[N+]1(C)C2CCC1CC(OC(=O)C(CO)c1ccccc1)C2 (centres undefined)
-1.3

====

- assay protocol: Immunotoxin (HA22) sensitization/mitigation study. Vehicle arm (PBS) (AID 1159510); also: potency is read from the fitted curve at half-maximal effect
- assay context: cancer cells viability with PBS vehicle (HA22 study); series mostly up to 46.1 µM
The source made the active and inactive calls. How the calls were made is not given here.
measurement name: Potency

Example entries begin here.
compound=CN(C)C1CCN(C(=O)c2ccc(NC(=O)Nc3nc(N4CCOCC4)nc(N4CCOCC4)n3)cc2)CC1 result="0.166 µM (active)"
compound=O=C(Nc1cc(C(F)(F)F)cc(C(F)(F)F)c1)c1cc(Cl)ccc1O result="0.166 µM (active)"
compound=N#CC[C@H](C1CCCC1)n1cc(-c2ncnc3[nH]ccc23)cn1 result="23.5 µM (active)"
compound=CCCCn1c(=O)n(Cc2ccccc2F)c(=O)c2[nH]c(Cc3ccc(NC(C)=O)cc3)nc21 result=inactive
compound=CCCCCCCCCCCCCC(=O)N[C@H](CO)[C@H](O)c1ccc([N+](=O)[O-])cc1 result="16.6 µM (active)"
compound=CNCc1ccc(-c2[nH]c3cc(F)cc4c3c2CCNC4=O)cc1 result="20.9 µM (active)"
compound=CN1CC[C@@H](c2c(O)cc(O)c3c(=O)cc(-c4ccccc4Cl)oc23)[C@@H](O)C1 result="0.0166 µM (active)"
compound=CCCn1c(=O)c2[nH]c(C34CC5CC3C[C@@H](C5)C4)nc2n(CCC)c1=O result="16.6 µM (active)"
compound="CC1CC(C)C(=O)C(C(O)CC2CC(=O)NC(=O)C2)C1 (stereo not drawn)" result="0.054 µM (active)"
compound=Oc1cccc(-c2nc(N3CCOCC3)c3oc4ncccc4c3n2)c1 result="0.264 µM (active)"

For each of the compounds below, state Potency.
1. Fc1ccc(Cl)cc1-c1nc(Nc2ccncc2)c2nccnc2n1
2. CCn1c(-c2nonc2N)nc2cnc(Oc3cccc(NC(=O)c4ccc(OCCN5CCOCC5)cc4)c3)cc21
3. COc1cc2nccc(Oc3ccc(NC(=O)C4(C(=O)Nc5ccc(F)cc5)CC4)cc3)c2cc1OC
4. OC[C@H](Cc1ccccc1)Nc1nc(Oc2ccc3c(c2)CCC3)nc2c1ncn2Cc1ccc(-c2ccccc2)cc1
5. CC1=C[C@@H]2[C@@H]([C@@H](O)C[C@@]3(C)[C@H]2C[C@@H](C)[C@]3(O)C(=O)CO)[C@@]2(C)Cc3cnn(-c4ccccc4)c3C=C12
6. CCOC(=O)[C@@H](N)CCC(=O)N[C@@H](CSCc1ccccc1)C(=O)N[C@@H](C(=O)OCC)c1ccccc1
7. NC(=O)c1c(OCc2c(F)cc(Br)cc2F)nsc1NC(=O)NCCCCN1CCCC1
8. CCC1(O)CC2CN(CCc3c([nH]c4ccccc34)[C@@](C(=O)OC)(c3cc4c(cc3OC)N(C=O)[C@H]3[C@](O)(C(=O)OC)[C@H](OC(C)=O)[C@]5(CC)C=CCN6CC[C@]43[C@@H]65)C2)C1 (stereo partly drawn)

1: inactive; 2: 18.7 µM (active); 3: 20.9 µM (active); 4: 10.5 µM (active); 5: 1.66 µM (active); 6: 23.5 µM (active); 7: 23.5 µM (active); 8: 0.0017 µM (active)
